Procedure details: AP1 Signaling Pathway (AID 357);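 further: ME-180 reporter cells stimulated with EGF at its EC50 level; on the % scale 0 is the no-effect control and ±100 the full control effect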
Setup conditions: ME-180 (cervical carcinoma) AP-1-bla reporter, EGF-induced, beta-lactamase ratio, 5 h; at 17.2 µM (top of the series)
Results filed as inconclusive are left out.
I'd be grateful if you could share measured activity change, negative = inhibition for these entries.
Answer format: numeric, % implied, no suffix.

Q: Which value of activity change, negative = inhibition has been reported for `CC(C)Cc1ccc([C@H](C)C(=O)O)cc1` in the records?
Ans: -1.53

Q: Which value of activity change, negative = inhibition has been reported for `Cc1c(N)c(=O)n(-c2ccccc2)n1C` in the records?
Ans: 7.65

Q: Which value of activity change, negative = inhibition has been reported for `CCOc1ccc2nc(S(N)(=O)=O)sc2c1` in the records?
Ans: 7.72

Q: Which value of activity change, negative = inhibition has been reported for `OC[C@H]1O[C@@H](n2cnc3c(NC4CCCC4)ncnc32)[C@H](O)[C@@H]1O` in the records?
Ans: 4.32

Q: Which value of activity change, negative = inhibition has been reported for `CC1(C)S[C@@H]2[C@H](NC(=O)[C@H](N)c3ccccc3)C(=O)N2[C@H]1C(=O)O` in the records?
Ans: 6.1

Q: Which value of activity change, negative = inhibition has been reported for `Cc1nc2sccn2c(=O)c1CCN1CCC(=C(c2ccccc2)c2ccc(F)cc2)CC1` in the records?
Ans: -10.2

Q: Which value of activity change, negative = inhibition has been reported for `Nc1nc(Cl)nc2c1ncn2[C@@H]1O[C@H](CO)[C@@H](O)[C@H]1O` in the records?
Ans: 0.568

Q: Which value of activity change, negative = inhibition has been reported for `COc1ccc(/C=C/C(=O)Nc2ccccc2C(=O)O)cc1OC` in the records?
Ans: -28.6

Q: Which value of activity change, negative = inhibition has been reported for `OC[C@H]1O[C@@H](n2cnc3c(Nc4ccccc4)ncnc32)[C@H](O)[C@@H]1O` in the records?
Ans: 0.891

Q: Which value of activity change, negative = inhibition has been reported for `Cc1ccc(C(=O)c2ccc(CC(=O)O)n2C)cc1` in the records?
Ans: 6.83

Q: Which value of activity change, negative = inhibition has been reported for `O=c1[nH]c2ccccc2n1CCCN1CCN(C(c2ccccc2)c2ccccc2)CC1` in the records?
Ans: -6.95

Q: Which value of activity change, negative = inhibition has been reported for `CNCC[C@H](Oc1ccc(C(F)(F)F)cc1)c1ccccc1` in the records?
Ans: 21.4

----------
Procedure details: qHTS Assay for Identifying Gametocytocidal Compounds (AID 743244);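 further: on the % scale 0 is the no-effect control and ±100 the full control effect; actives lower the fluorescent signal which means gametocytes are killed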
Setup conditions: P. falciparum 3D7 stage III-V gametocytes, alamarBlue, 72 h; stronger effect = lower value
Results filed as inconclusive are left out.
Measured quantity: max response (%)
Answer format: numeric, % implied, no suffix.

Q: Which value of max response has been reported for `COc1cc(SC)ccc1C(=O)N1CCC(Cc2ccccc2)CC1` in the records?
Ans: 12.7

Q: Which value of max response has been reported for `N#C/C(=C\c1ccc(O)c(O)c1)C(=O)NCCCc1ccccc1` in the records?
Ans: 8.54

Q: Which value of max response has been reported for `Cc1ccc(C(=O)c2ccc(CC(=O)O)n2C)cc1` in the records?
Ans: 39.2

Q: Which value of max response has been reported for NC(CCCP(=O)(O)O)C(=O)O (stereo not given) in the records?
Ans: 8.77

Q: Which value of max response has been reported for `CN(C)c1nc(N)c(C(=O)N=C(N)N)nc1Cl` in the records?
Ans: 11

Q: Which value of max response has been reported for `COC(=O)[C@H]1[C@H]2C[C@@H]3c4[nH]c5cc(OC)ccc5c4CCN3C[C@H]2C[C@@H](OC(=O)/C=C/c2cc(OC)c(OC)c(OC)c2)[C@@H]1OC` in the records?
Ans: -0.068

Q: Which value of max response has been reported for `C[C@H](O)[C@H](O)[C@H]1CNc2nc(N)[nH]c(=O)c2N1` in the records?
Ans: -5.73

Q: Which value of max response has been reported for `CCNC(=O)[C@H]1O[C@@H](n2cnc3c(N)nc(NCCc4ccc(CCC(=O)O)cc4)nc32)[C@H](O)[C@@H]1O` in the records?
Ans: -4.57

Q: Which value of max response has been reported for O=C1O/C(=C/Br)CCC1c1cccc2ccccc12 (stereo not given) in the records?
Ans: 7.23

Q: Which value of max response has been reported for `Nc1ncnc2c1c(I)cn2[C@@H]1C[C@H](N)[C@@H](O)[C@H]1O` in the records?
Ans: 12.6

----------
Study target: Phosphoglycerate kinase, glycosomal (Trypanosoma brucei brucei) (UniProt P07378)
Sequence (P07378 whole entry, looked up): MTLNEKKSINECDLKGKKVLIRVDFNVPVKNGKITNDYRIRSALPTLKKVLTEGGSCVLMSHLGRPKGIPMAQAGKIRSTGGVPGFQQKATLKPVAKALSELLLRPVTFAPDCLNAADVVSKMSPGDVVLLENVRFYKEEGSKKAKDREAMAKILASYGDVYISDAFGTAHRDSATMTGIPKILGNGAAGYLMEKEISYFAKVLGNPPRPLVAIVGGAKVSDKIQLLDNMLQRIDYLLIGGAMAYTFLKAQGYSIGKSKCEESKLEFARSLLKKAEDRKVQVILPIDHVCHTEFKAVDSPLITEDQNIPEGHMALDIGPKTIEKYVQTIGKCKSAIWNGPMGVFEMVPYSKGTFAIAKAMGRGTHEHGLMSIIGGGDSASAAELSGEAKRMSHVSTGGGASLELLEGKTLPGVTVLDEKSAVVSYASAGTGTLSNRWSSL
Procedure details: qHTS Validation Assay to Find Inhibitors of Phosphoglycerate Kinase (AID 504547)
Setup conditions: enzymatic PGK inhibition, coupled luminescence read-out; series mostly up to 57.5 µM
Active and inactive are the calls of the source. Calls follow the shape of the dose curve; as a rule, active = well fitted inhibition curve with a large enough effect; inconclusive = small, poorly fitted or top-dose-only effect; inactive = flat fitted curve, though single readings scatter.
Pick one and only one: active, inactive

Q: Record request — test call for `O=c1[nH]c2cc(Cl)c(Cl)cc2[nH]c1=O`
Ans: inactive

Q: Record request — test call for `CC(C)Cc1ccc([C@H](C)C(=O)O)cc1`
Ans: inactive

Q: Record request — test call for `CN(C)c1ccc(/C=C2\C(=O)Nc3ccccc32)cc1`
Ans: inactive

Q: Record request — test call for `N#C/C(=C\c1ccc(O)c(O)c1)C(=O)c1ccc(O)c(O)c1`
Ans: active

Q: Record request — test call for `Clc1ccc(N2CCN(Cc3c[nH]c4ncccc34)CC2)cc1`
Ans: inactive

Q: Record request — test call for O=C(O)CC1CC(c2ccccc2)=NO1 (stereo unspecified)
Ans: inactive

----------
Test system: NIH3T3
Procedure details: Cytotoxic Profiling of Annotated Libraries Using Quantitative High-Throughput Screening (AID 1296008); further: nearly all actives have a fitted effect of over 60% in size
Setup conditions: Five cell lines viability, CellTiter-Glo ATP luminescence, 48-72 h
Results filed as inconclusive are left out. Active and inactive are the calls of the source. Calls follow the shape of the dose curve; as a rule, active = well fitted inhibition curve with a large enough effect; inconclusive = small, poorly fitted or top-dose-only effect; inactive = flat fitted curve, though single readings scatter. Where a SMILES comes first, the peptide text is derived from it. [ ]: non-standard residue; d: D form. pGlu = O=C1CC[C@@H](C(=O)O)N1; Thz = O=C(O)[C@@H]1CSCN1
Pick one and only one: active, inactive

Q: Record request — test call for `CC(=O)O[C@H]1C[C@@]2(C)[C@@H](C[C@@H](O)[C@H]3[C@@]4(C)CC[C@@H](O)[C@@H](C)[C@@H]4CC[C@@]32C)/C1=C(\CCC=C(C)C)C(=O)O`
Ans: inactive

Q: Record request — test call for `CC1(C)S[C@@H]2[C@H](NC(=O)[C@H](N)c3ccc(O)cc3)C(=O)N2[C@H]1C(=O)O`
Ans: inactive

Q: Record request — test call for `CN(C)CCn1nnnc1SCC1=C(C(=O)O)N2C(=O)[C@@H](NC(=O)Cc3csc(N)n3)[C@H]2SC1`
Ans: inactive

Q: Record request — test call for `O=[N+]([O-])c1ccc(CNc2nc(NCc3cccc(C(F)(F)F)c3)nc3nc[nH]c23)cc1`
Ans: inactive

Q: Record request — test call for `CC(=O)c1ccc(OCC(=O)N2CCCCC2)cc1`
Ans: inactive

Q: Record request — test call for `CO[C@@]1(NC(=O)Cc2cccs2)C(=O)N2C(C(=O)O)=C(COC(N)=O)CS[C@@H]21`
Ans: inactive

Q: Record request — test call for `COC(=O)[C@H]1[C@H]2C[C@@H]3c4[nH]c5cc(OC)ccc5c4CCN3C[C@H]2C[C@@H](OC(=O)/C=C/c2cc(OC)c(OC)c(OC)c2)[C@@H]1OC`
Ans: inactive

Q: Record request — test call for `COc1cccc2c1C(=O)c1c(O)c3c(c(O)c1C2=O)C[C@@](O)(C(=O)CO)C[C@@H]3O[C@H]1C[C@H](N)[C@H](O[C@@H]2CCCCO2)[C@H](C)O1`
Ans: active

Q: Record request — test call for O=C1CC[C@@H](C(=O)N2CSC[C@H]2C(=O)O)N1 ([pGlu]-[Thz]-OH)
Ans: inactive

Q: Record request — test call for `CC1(C)S[C@@H]2[C@H](NC(=O)[C@H](NC(=O)N3CCN(S(C)(=O)=O)C3=O)c3ccccc3)C(=O)N2[C@H]1C(=O)O`
Ans: inactive

Q: Record request — test call for `CCNc1nc2c(ncn2[C@H]2C[C@H](O)[C@@H](CO)O2)c(=O)[nH]1`
Ans: inactive

Q: Record request — test call for `CCCC(=O)OC[C@@H](OC(=O)CCC)[C@@H](OC(=O)CCC)[C@H](Cn1c2nc(=O)[nH]c(=O)c-2nc2cc(C)c(C)cc21)OC(=O)CCC`
Ans: inactive

Q: Record request — test call for `COc1ccc(-c2cc(=S)ss2)cc1`
Ans: inactive

Q: Record request — test call for `N=C(N)N`
Ans: inactive

Q: Record request — test call for CCCCC1C(=O)N(c2ccccc2)N(c2ccc(O)cc2)C1=O (stereo not given)
Ans: active

Q: Record request — test call for `CCN(CC)CCCCNc1ncc2cc(-c3c(Cl)cccc3Cl)c(NC(=O)NC(C)(C)C)nc2n1`
Ans: active

Q: Record request — test call for `Nc1ccc(C(=O)O)c(O)c1`
Ans: inactive

Q: Record request — test call for `[O-][n+]1ccccc1SSc1cccc[n+]1[O-]`
Ans: active

Q: Record request — test call for `Nc1ccc(O)c(C(=O)O)c1`
Ans: inactive

Q: Record request — test call for `O=C1CN(/N=C/c2ccc([N+](=O)[O-])o2)C(=O)N1`
Ans: inactive
